Hi there, I'd appreciate the recorded max response for every entry that follows.
Test system: KB-3-1
Experiment: Cytotoxic Profiling of Annotated Libraries Using Quantitative High-Throughput Screening (AID 1296008); note: % is set by controls: 0 for no effect and ±100 for the full control effect; nearly all actives have a fitted effect of over 60% in size
Settings: Five cell lines viability, CellTiter-Glo ATP luminescence, 48-72 h; stronger effect = lower value
Records with an inconclusive call do not appear.
// units = %; emit number, no label

Consider `CC(=O)N[C@@H](CC(=O)N[C@@H](CCC(=O)O)C(=O)O)C(=O)O` . Its measured max response is -12.8

Consider `CC(=O)OCC1=C[C@H](O)[C@@H]2C(C(=O)O)=CO[C@@H](O[C@@H]3O[C@H](CO)[C@@H](O)[C@H](O)[C@H]3O)[C@H]12` . Its measured max response is -1.91

Consider `C[C@]1(O)CC[C@@H]2C(C(=O)O)=CO[C@@H](O[C@@H]3O[C@H](COC(=O)c4ccc(O)cc4)[C@@H](O)[C@H](O)[C@H]3O)[C@@H]21` . Its measured max response is 9.39

Consider CC(O)(CC(=O)O)CC(=O)O[C@@H]1[C@@H](O)[C@H](OCCc2ccccc2)O[C@H](CO)[C@H]1O (stereo not given in full) . Its measured max response is 7.92

Consider `O=C(O)c1cc(O)c2c(c1)[O][Bi][O]2` . Its measured max response is 2

* * *

Experiment: qHTS profiling for inhibitors of Plasmodium falciparum (DD2) proliferation (AID 743323)
Conditions: lower = more inhibition; at 28.7 µM (top of the series) unless noted
measured-endpoint: activity, percent of control (%)
// units = %; emit number, no label

Consider `CCOc1cc2ncc(C#N)c(Nc3ccc(OCc4ccccn4)c(Cl)c3)c2cc1NC(=O)/C=C/CN(C)C` . Its measured activity, percent of control is 5.17

Consider CNC1CCN(C(Cc2cccc(-c3ccncc3)c2)C(=O)c2sc3c(F)ccc(F)c3c2Cl)CC1 (stereo unspecified) . Its measured activity, percent of control is 0.386

Consider CC(NC(=O)Cc1cc(F)cc(F)c1)C(=O)NC(C(=O)OC(C)(C)C)c1ccccc1 (stereo unspecified) . Its measured activity, percent of control is 97.7

Consider `NC(=O)Nc1cc(-c2ccc(CN3CCOCC3)c(F)c2)sc1C(=O)N[C@H]1CCCNC1` . Its measured activity, percent of control is 1.39

* * *

Assay: Drug repurposing screens with cells derived from glioblastoma tumor samples (AID 1345199); note: % is set by controls: 0 for no effect and ±100 for the full control effect; nearly all actives have a fitted effect of over 40% in size
Conditions: GBM patient neurospheres viability, ATP luminescence, 48 h; at 21.2 µM (top of the series); tumour line B
Results filed as inconclusive are left out. The source made the active and inactive calls. Calls come from the whole dose curve; as a rule, active = well fitted inhibition curve with a large enough effect; inconclusive = small, poorly fitted or top-dose-only effect; inactive = flat fitted curve, though single readings scatter.
measured-endpoint: activity, negative = cell killing

Consider `CCOC(=O)O[C@]1(C(=O)COC(=O)CC)CC[C@H]2[C@@H]3CCC4=CC(=O)C=C[C@]4(C)[C@H]3[C@@H](O)C[C@@]21C` . Its measured activity, negative = cell killing is -5.02% (inactive)

Consider `CN(C)CC/C=C1/c2ccccc2CSc2ccccc21` . Its measured activity, negative = cell killing is -26.2% (inactive)

Consider `CC[N+](C)(C)Cc1ccccc1Br` . Its measured activity, negative = cell killing is 0.866% (inactive)

Consider CNC(C)[C@@H]1CC[C@@H](N)[C@@H](O[C@H]2[C@H](O)[C@@H](O[C@H]3OC[C@](C)(O)[C@H](NC)[C@H]3O)[C@H](N)C[C@@H]2N)O1 (some centres undefined) . Its measured activity, negative = cell killing is -11.6% (inactive)
